System tested: human Lck enzyme (Homo sapiens, UniProt P06239)
Construct: purchased Carna Biosciences, Inc. 08-170
Sequence (P06239 whole entry): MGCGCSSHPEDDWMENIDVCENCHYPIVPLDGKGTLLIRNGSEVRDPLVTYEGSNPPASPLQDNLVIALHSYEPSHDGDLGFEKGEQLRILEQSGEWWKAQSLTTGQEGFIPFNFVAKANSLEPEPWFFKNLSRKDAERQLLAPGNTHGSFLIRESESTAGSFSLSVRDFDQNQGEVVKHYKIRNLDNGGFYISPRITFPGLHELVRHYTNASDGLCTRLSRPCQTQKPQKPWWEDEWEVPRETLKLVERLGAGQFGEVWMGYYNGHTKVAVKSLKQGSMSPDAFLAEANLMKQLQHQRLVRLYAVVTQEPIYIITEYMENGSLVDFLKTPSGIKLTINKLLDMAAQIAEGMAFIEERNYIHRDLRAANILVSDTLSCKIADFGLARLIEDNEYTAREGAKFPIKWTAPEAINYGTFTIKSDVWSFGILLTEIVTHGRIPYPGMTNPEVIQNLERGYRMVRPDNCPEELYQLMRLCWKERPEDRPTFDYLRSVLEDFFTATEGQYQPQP
Measurement protocol: Lck enzyme inhibitory activity (time-resolved fluorometry, biotinylated peptide phosphorylation)
Format: biochemical
Conditions used: biotinylated peptide phosphorylation, read-out: LCK_IC50
Result type: IC50 (nM)

>  <Given smiles>
Cc1cc2cc(C(=O)c3cnn(-c4cnc(Oc5c(F)cccc5F)cc4C)c3N)[nH]c2cc1NS(=O)(=O)c1c(F)cc(F)cc1F

>  <Result type>
IC50

>  <Measured number>
720

$$$$
>  <Given smiles>
Cc1cc(Oc2c(F)cccc2F)ncc1-n1ncc(C(=O)c2cc3cc(OCC(F)F)c(N4CCC(N5CCOCC5)CC4)cc3[nH]2)c1N

>  <Result type>
IC50

>  <Measured number>
2.1

$$$$
>  <Given smiles>
COc1cccc(S(=O)(=O)Nc2cc3[nH]c(C(=O)c4cnn(-c5cnc(Oc6ccccc6F)cc5C)c4N)cc3cc2C)c1

>  <Result type>
IC50

>  <Measured number>
310

$$$$
>  <Given smiles>
Cc1cc2cc(C(=O)c3cnn(-c4ccc(Oc5ccccc5F)cc4C)c3N)[nH]c2cc1NS(=O)(=O)CCCF

>  <Result type>
IC50

>  <Measured number>
21

$$$$
>  <Given smiles>
Cc1cc2[nH]c(C(=O)c3cnn(-c4c(C)cc(Oc5ccccc5F)cc4F)c3N)cc2cc1NS(C)(=O)=O

>  <Result type>
IC50

>  <Measured number>
1.2

$$$$
>  <Given smiles>
Cc1cc(Oc2c(F)cccc2F)ncc1-n1ncc(C(=O)c2cc3cc(F)c(N4CC5(CCCC5)NS4(=O)=O)cc3[nH]2)c1N

>  <Result type>
IC50

>  <Measured number>
53

$$$$
